All values here come from the supplement of paper PMC9112550.

Tested on: Escherichia coli TOP10;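 note: peptides expressed intracellularly from a pBAD plasmid library in pooled LB shake-flask culture, induced with 0.3% L-arabinose, DNA abundance read by NGS, three biological replicates, DESeq2 with apeglm shrinkage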
Experiment: shrunken log2 fold change of peptide-encoding DNA abundance (4.5 h post-induction vs induction); higher = less antimicrobial activity (less host growth inhibition)
Conditions: time post-induction: 4.5 h; library: site-saturation at positions 5, 18, 19, 20
Please note: YES applies when shrunken log2 fold change is -0.06 or greater, and NO applies otherwise.

Worked examples, 8 sequences total:
> print(dat)
            sequence.input  qualitative.label
1  RRIRTRPPRLPRPRPRPYVCPRP                 NO
2  RRIRDRPPRLPRPRPRPTEQPRP                YES
3  RRIRYRPPRLPRPRPRPNHQPRP                 NO
4  RRIRGRPPRLPRPRPRPLFPPRP                YES
5  RRIRVRPPRLPRPRPRPKDRPRP                YES
6  RRIRARPPRLPRPRPRPQHLPRP                 NO
7  RRIRMRPPRLPRPRPRPCSVPRP                YES
8  RRIRARPPRLPRPRPRPHEHPRP                YES

Form field: shrunken log2 fold change at least -0.06? Entry: RRIRPRPPRLPRPRPRPIWRPRP
YES

Try this sequence too: RRIRRRPPRLPRPRPRPGMVPRP
YES

Then this sequence: RRIRCRPPRLPRPRPRPLNEPRP
YES

Lookup RRIRLRPPRLPRPRPRPVTCPRP
NO

Same for RRIRWRPPRLPRPRPRPWGAPRP
YES

Lookup RRIRTRPPRLPRPRPRPMKTPRP
YES

Same read-out for RRIRNRPPRLPRPRPRPIMLPRP ?
NO

Now consider RRIRQRPPRLPRPRPRPNLLPRP .
YES

Entry RRIRDRPPRLPRPRPRPQVCPRP please
YES
